assay: pH measurement of PVA-borate hydrogels (spear-tip electrode); format: physicochemical; details: 10% w/w PVA and 2.5% w/w borax hydrogel, n=4
Recorded endpoint: pH of hydrogel with 0.1 M polyol
Numbers only.

# annotated cases, reported pH of hydrogel with 0.1 M polyol shown
| Compound | Numeric readout |
| --- | --- |
| OC[C@@H](O)[C@@H](O)CO [Meso-erythritol] | 8.10 |
| OC[C@@H](O)[C@@H](O)[C@H](O)[C@@H](O)CO [D-sorbitol] | 7.79 |
| OC[C@@H](O)[C@H](O)[C@@H](O)CO [Xylitol] | 7.95 |
| OC[C@@H](O)[C@@H](O)[C@H](O)[C@H](O)CO [D-mannitol] | 7.74 |
| OC[C@@H](O)[C@H](O)[C@H](O)[C@@H](O)CO [Dulitol] | 7.67 |

Now let's try a different one.
Recall and state the measured pH of hydrogel with 0.1 M polyol for CC(O)CO (centres unmarked) [1,2-propandiol] .
8.39

* * *

test: Texture profile analysis (hardness) of PVA-borate hydrogels; assay type: physicochemical; settings: 10% w/w PVA and 2.5% w/w borax hydrogel with 0.1 M polyol, n=4
In plain terms, low Hardness (N), meaning strictly below 4 N, gives met, and everything else gives not met.

Previously resolved entries follow.
| Compound | Assigned category |
| --- | --- |
| OC[C@@H](O)[C@H](O)[C@@H](O)CO | not met |
| CC(O)CO (stereo not drawn) | not met |
| OC[C@@H](O)[C@@H](O)[C@H](O)[C@@H](O)CO | not met |
| OC[C@@H](O)[C@H](O)[C@H](O)[C@@H](O)CO | met |

Problem: For the compound OC[C@@H](O)[C@@H](O)CO , is Hardness (N) under 4 N?
not met

* * *

assay: Comparison of polyol affinity for borate ions by direct titrimetry; type: physicochemical; settings: polyol added to 100.0 ml of 5% w/v Borax solution; calculated from pH with Equation 3
In plain terms, low % reduction in free borate/0.0005 moles, meaning strictly below 7%, gives MET, and everything else gives NOT MET.

Previously resolved entries follow.
| Molecule | Assigned category |
| --- | --- |
| CC(O)CO (centres unmarked) | MET |
| CC(C)O | MET |
| OC[C@@H](O)[C@H](O)[C@@H](O)CO | MET |
| OC[C@@H](O)[C@@H](O)CO | MET |
| OC[C@@H](O)[C@H](O)[C@H](O)[C@@H](O)CO | NOT MET |

Problem: For the molecule OC[C@@H](O)[C@@H](O)[C@H](O)[C@H](O)CO , is % reduction in free borate/0.0005 moles under 7%?
NOT MET

Problem: For the molecule OCC(O)CO , is % reduction in free borate/0.0005 moles under 7%?
MET

These data points were gathered from patent US9272038B2.
